Origin of values: patent US9617256B2

tested on: AECO001 (ATCC25922); test: MIC broth microdilution, AECO001; format: cell-based, E. coli; settings: Escherichia coli, ATCC25922, read-out: MIC AECO001
measured metric: MIC

* C[C@@H](O)[C@H](NC(=O)c1ccc(C#Cc2ccncc2)cc1)C(=O)NO | 16 to 64 µg/mL

The measured MIC associated with COC(C)[C@H](NC(=O)c1ccc(/C=C/C#Cc2ccc(CN3CCOCC3)cc2)cc1)C(=O)NO (stereo partly drawn) reads < 2 µg/mL

----------
tested on: ASAU001 (laboratory strain of S. aureus, ATCC29213); assay: MIC broth microdilution, ASAU001; assay type: cell-based; details: Staphylococcus aureus, ATCC29213, read-out: MIC ASAU001
measured metric: MIC

Recorded MIC (molecule COCCNCc1ccc(C#Cc2ccc(C(=O)N[C@H](C(=O)NO)[C@@H](C)N)cc2)cc1 [Example 122-1] ): 16 to 64 µg/mL

----------
Some molecules, each annotated with its measured MIC.
system: AABA1060 (clinical isolate of Acinetobacter baumannii); assay: MIC broth microdilution, AABA1060; type: cell-based; settings: Acinetobacter baumannii, read-out: MIC AABA1060

Sample answers from the record:
• C[C@@H](N)[C@H](NC(=O)c1ccc(C#Cc2ccc(CNCCF)cc2)cc1)C(=O)NO = 2 to 16 µg/mL
• C[C@@H](O)[C@H](NC(=O)c1ccc(/C=C\C#Cc2ccc(CN3CCOCC3)cc2)cc1)C(=O)NO [Example 30-12b] = 16 to 64 µg/mL
• C[C@@H](N)[C@H](NC(=O)c1ccc(/C=C/C#CC2CC2)cc1)C(=O)NO = 2 to 16 µg/mL
• COCCNCc1ccc(C#Cc2ccc(C(=O)N[C@H](C(=O)NO)[C@@H](C)N)cc2)cc1 = 16 to 64 µg/mL
• C[C@@H](O)[C@H](NC(=O)c1ccc(C#C/C=C/c2ccncc2)cc1)C(=O)NO = 16 to 64 µg/mL

CC(C)(N)C(NC(=O)c1ccc(C#Cc2ccc(CNCC(F)F)cc2)cc1)C(=O)NO (stereo not drawn) yielded MIC of 2 to 16 µg/mL

What the record says about O=C(CNC1CC1)NC[C@H](NC(=O)c1ccc(C#C/C=C/c2ccccc2)cc1)C(=O)NO : MIC is 16 to 64 µg/mL

Data point: C[C@@H](N)[C@H](NC(=O)c1ccc(/C=C/C#Cc2ccc(Cl)cc2)cc1)C(=O)NO ; MIC = 2 to 16 µg/mL

The molecule listed as C[C@@H](N)[C@H](NC(=O)c1ccc(C#Cc2ccc(CN3CCCOCC3)cc2)cc1)C(=O)NO shows MIC equal to 2 to 16 µg/mL

Per the records, this molecule ( C[C@@H](N)[C@H](NC(=O)c1ccc(C#CC#Cc2ccc(N)cc2)cc1)C(=O)NO ) has MIC equal to < 2 µg/mL

// O=C(NC(C(=O)NO)C1(O)CC1)c1ccc(C#CC#CC2CC2)cc1 (stereo not drawn) : MIC value = 2 to 16 µg/mL

Reported MIC for C[C@H](NCC(=O)N[C@H](C)[C@H](NC(=O)c1ccc(C#Cc2ccccc2)cc1)C(=O)NO)c1ccccc1 was 16 to 64 µg/mL

Record C[C@@H](O)[C@H](NC(=O)c1ccc(N2CCN(c3ccc(CN4CCOCC4)cc3)CC2)cc1)C(=O)NO , field MIC: > 64 µg/mL

Consider O=C(N[C@H](C(=O)NO)C1CC1)c1ccc(C#Cc2ccc(CN3CCOCC3)cc2)cc1 . Its measured MIC is 16 to 64 µg/mL

The value of MIC measured for the molecule C[C@@H](N)[C@H](NC(=O)c1ccc(C#Cc2ccc(CNC(=N)N)cc2)cc1)C(=O)NO turned out to be 16 to 64 µg/mL
